Cited source for all entries: PubChem BioAssay (NCI)

- Tested on: OVCAR-8 ovarian
- EXPERIMENTAL_PROTOCOL: NCI tumour cell line growth inhibition, 48 h
Each entry below lists one item and its recorded TGI value.
OBSERVED_PROPERTY: TGI

>>> print(df.to_string())
                                   compound    result
0  CCCCCCCCCCCCCCCCCCNc1nc(=O)n(C2CC(OP(=O)(O)OCC3OC(n4cc(F)c(=O)[nH]c4=O)CC3O)C(CO)O2)cc1F (stereo unspecified)   73.3 µM
1  COC(=O)C(C)Oc1ccc(O)cc1 (stereo unspecified)  > 100 µM
2  Nc1ccn(CC(O)c2cc3ccccc3[nH]2)c(=O)n1 (stereo unspecified)  > 100 µM
3         CN(C)Cc1cc(C(C)(C)C)cc(CN(C)C)c1O  > 100 µM
4        O=C(NNc1nc(-c2ccccc2)cs1)Nc1ccccc1   46.8 µM
5  O=C1CC2OCC=C3CN4CCC5(C(=O)O)C(N1)C2C3CC45 (stereo unspecified)  > 100 µM

---

- Tested on: ACHN renal
- EXPERIMENTAL_PROTOCOL: NCI tumour cell line growth inhibition, 48 h
Listed below: TGI values for each entry.
OBSERVED_PROPERTY: TGI (µM)

>>> print(df.to_string())
                                   compound  target_desc  inequality_operator  numeric_value
0    CSc1c(C)n([O-])c2cc(Cl)c(Cl)cc2[n+]1=O   ACHN renal                    =           30.7
1  C[C@H]1CC[C@@H]2[C@@H](C)[C@H]3[C@H](C[C@H]4[C@@H]5CC=C6C[C@@H](O)CC[C@]6(C)[C@H]5CC[C@]34C)N2C1   ACHN renal                    >            100
2  COC(=O)C(C)Oc1ccc(O)cc1 (centres undefined)   ACHN renal                    >            100
3  CC/C(C)=C1\CCC(CN(C)C)C1=O (centres undefined)   ACHN renal                    =           33.2

---

Item-by-item account of GI50
- Test system: SF-295 CNS
- EXPERIMENTAL_PROTOCOL: NCI tumour cell line growth inhibition, 48 h
OBSERVED_PROPERTY: GI50

In [3]: df
Out[3]:
                                    molecule  target_desc  observed_property    result
 0  CC1=C(SCCC(=O)OC(C[Se]C2=C(C)C(=O)c3ccccc3C2=O)C(=O)NC(C)(C)C)C(=O)c2ccccc2C1=O (stereo not drawn)   SF-295 CNS               GI50  0.315 µM
 1       Cc1cn2cc(-c3ccc4c(c3)CC(=O)N4)nc2s1   SF-295 CNS               GI50  > 100 µM
 2                   CCSc1nc(N)c2cnn(CC)c2n1   SF-295 CNS               GI50   8.02 µM
 3       CCOC(=O)N(O)c1ccc(/C=C/c2ccccc2)cc1   SF-295 CNS               GI50   2.45 µM
 4  COc1cc2c(=O)n(CC3CCCCC3)c3c4cc[nH]c4ncc3c2cc1OC   SF-295 CNS               GI50   2.18 µM
 5  CS(=O)(=O)CCNCc1ccoc1-c1ccc2ncnc(Nc3ccc(OCc4ccccc4)cc3)c2c1   SF-295 CNS               GI50   > 25 µM
 6  CNC(=O)c1cc(-c2ccc(F)cc2)cc(-c2ccc(S(=O)(=O)N3CCCC3)cc2)c1N   SF-295 CNS               GI50   10.6 µM
 7  C1CC[N-]CC1.CC(=N\O)/C(C)=N/O.CC(=N\O)/C(C)=N/O.C[CH-]C(C)O.[Co+2]   SF-295 CNS               GI50   88.5 µM
 8  N#Cc1cc2c(cc1Cl)SC(=Nc1ccccc1)N(S(=O)(=O)c1ccc(Br)s1)S2(=O)=O   SF-295 CNS               GI50   30.4 µM
 9  N=C(N)c1ccc(-c2ccc(-c3ccc(Cl)cc3Cl)s2)nc1   SF-295 CNS               GI50   1.74 µM
10  C[C@@H](C[C@H](CCO)c1ccccc1)c1ccc2ccccc2c1   SF-295 CNS               GI50   1.72 µM
11  Cc1nc2sc(C(=O)Nc3ccccc3)c(N)c2cc1C(=O)c1ccccc1   SF-295 CNS               GI50   1.83 µM
12  COc1ccc(/C=C/C(=O)c2ccc(Nc3nc(Nc4ccc(F)cc4)nc(Nc4ccc(F)cc4)n3)cc2)cc1   SF-295 CNS               GI50   14.2 µM
